Test system: SK-OV-3 ovarian
Test: NCI-60 one-dose screen, 48 h (100 = growth as untreated, 0 = no growth, -100 = all killed)
Settings: 10 µM unless noted
Description: Growth inhibition of the SK-OV-3 human tumor cell line is measured as a screen for anti-cancer activity. Cells are grown in 96 well plates and exposed to the test compound for 48 hours. Compounds are tested at a single concentration, which is 10^-5 M for most compounds. The reported endpoint is percent growth (GI% or GIPRCNT), where numbers from 0 - 100% represent growth inhibition, and numbers from -100% - 0 represent cell death. For example, a value of 40 represents 60% growth inhibition. […]
Compounds without any hit were thinned out: in the full panel of roughly 83,000, 20% have a hit.
MEASUREMENT_LABEL: growth (%)

- MOLECULE: "COc1cccc(NC(=O)c2sc3nc4c(cc3c2N)C(=O)CCC4)c1"
  VALUE: -2.7
- MOLECULE: "CC(c1ccccc1)N1C(=O)C(C2SC(=S)N(C(C)c3ccccc3)C2=O)SC1=S (stereo not given)"
  VALUE: 106
- MOLECULE: "Cn1c(=O)c2c(nc(N3CCCC3)n2C)n(C)c1=O"
  VALUE: 103
- MOLECULE: "c1ccc(-c2nc(Nc3ccc(-c4nc5ccccc5[nH]4)cc3)nc(N3CCOCC3)n2)cc1"
  VALUE: -30.3
- MOLECULE: "COc1cnc2c(c1)C(=O)c1c-2n(CCCN2CCN(CCO)CC2)c(=O)c2cc([N+](=O)[O-])ccc12"
  VALUE: 54.8

====

Tested on: OVCAR-3 ovarian
Experiment: NCI-60 one-dose screen, 48 h (100 = growth as untreated, 0 = no growth, -100 = all killed)
Conditions: 10 µM unless noted
The panel holds about 83,000 compounds, 20% with a hit somewhere; the sample as a whole holds those more often.

- SMILES_INPUT: "O=C1C=Cc2ncccc2C1=O"
  growth [%]: 64.4
- SMILES_INPUT: "O=Cc1nc2ccccc2[nH]1"
  growth [%]: 111
- SMILES_INPUT: "O=C(NC1=CC(=O)c2ccccc2C1=O)c1ccccc1"
  growth [%]: -82.5
- SMILES_INPUT: "Cc1nn2c(-c3nc4cc(Cl)c(Cl)cc4[nH]3)c(-c3ccc(F)cc3)nc2s1"
  growth [%]: -13.2
- SMILES_INPUT: "COC(=O)[C@]12CC[C@@H](C)[C@H](C)[C@@H]1C1=CC[C@@H]3[C@@]4(C)C=C(O)C(=O)C(C)=C4CC[C@@]3(C)[C@]1(C)CC2"
  growth [%]: 28.5

====

Test system: KM12 colon
Test: NCI-60 one-dose screen, 48 h (100 = growth as untreated, 0 = no growth, -100 = all killed)
Conditions: 10 µM unless noted
Compounds without any hit were thinned out: in the full panel of roughly 83,000, 20% have a hit.
MEASUREMENT_LABEL: growth (%)

- SMILES_INPUT: "Cn1c(=O)c2c(nc(Br)n2CC(=O)Nc2ccc(F)cc2)n(C)c1=O"
  MEASUREMENT_LABEL: "growth"
  VALUE: 101
- SMILES_INPUT: "COC(=O)[C@]12CC[C@@H](C)[C@H](C)[C@@H]1C1=CC[C@@H]3[C@@]4(C)CC(=O)[C@H](OC(=O)c5ccco5)[C@@]5(C)COC(=C45)C[C@@]3(C)[C@]1(C)CC2"
  MEASUREMENT_LABEL: "growth"
  VALUE: 27.9
- SMILES_INPUT: "Cc1cc(Cl)nc(N(CCNc2ccnc3cc(Cl)ccc23)Cc2ccco2)n1"
  MEASUREMENT_LABEL: "growth"
  VALUE: 59.5
- SMILES_INPUT: "Cn1c(=O)c2c(ncn2CC(=O)Nc2ccc(S(N)(=O)=O)cc2)n(C)c1=O"
  MEASUREMENT_LABEL: "growth"
  VALUE: 101

====

System: RPMI-8226 leukemia
Test: NCI-60 one-dose screen, 48 h
Settings: 10 µM unless noted
Compounds without any hit were thinned out: in the full panel of roughly 83,000, 20% have a hit. The source made the active and inactive calls. Rule for the calls: active = growth percent below 10; inactive = the rest.
Outcome codes: True (active), False (inactive)

- COMPOUND: "N#Cc1c(-c2ccco2)nc2c(c(-c3ccccc3)nn2-c2ccccc2)c1-c1ccc(O)cc1"
  ASSIGNED_CATEGORY: "False"
- COMPOUND: "O=c1[nH]ncc(Br)c1Br"
  ASSIGNED_CATEGORY: "False"
- COMPOUND: "CCc1ccccc1NC(=O)c1sc2nc3c(cc2c1N)CCCC3"
  ASSIGNED_CATEGORY: "False"
- COMPOUND: "Cn1cc(-c2csc(-c3cn(C(=O)OC(C)(C)C)c4ccccc34)n2)c2cccnc21"
  ASSIGNED_CATEGORY: "False"
- COMPOUND: "CC(C)(C)c1ccc(OP(=S)(N/N=C/c2ccccc2O)Oc2ccc(C(C)(C)C)cc2)cc1"
  ASSIGNED_CATEGORY: "False"
- COMPOUND: "CCCCCCCCNc1cccc2c1C(=O)c1ccccc1C2=O"
  ASSIGNED_CATEGORY: "False"
- COMPOUND: "CC(=O)O[C@H]1CC[C@@]2(C)C(=CC[C@@H]3[C@@H]2CC[C@]2(C)C(=O)N(O)C(=O)C[C@@H]32)C1"
  ASSIGNED_CATEGORY: "False"
- COMPOUND: "COc1ccc(-c2n[nH]nc2-c2cc3ccccc3s2)cc1O"
  ASSIGNED_CATEGORY: "False"
- COMPOUND: "O=C(c1ccccc1)C(CN1CCOCC1)c1ccccc1 (stereo unspecified)"
  ASSIGNED_CATEGORY: "True"
- COMPOUND: "C=C(C)[C@@H]1CC[C@]2(C)[C@H](CC=C3[C@@H]4CC(C)(C)CC[C@]4(C=O)CC[C@]32C)[C@@]1(C)CCCN"
  ASSIGNED_CATEGORY: "False"
- COMPOUND: "CC(C)/C=C/CC[C@](C)(O)[C@H]1CC[C@]2(C)[C@@H]1CC[C@@H]1[C@@]3(C)C/C(=C/c4cccc(C(F)(F)F)c4)C(=O)C(C)(C)[C@@H]3CC[C@]12C"
  ASSIGNED_CATEGORY: "False"
- COMPOUND: "CCN(CC)C(=O)CCCCCn1c2ccccc2c2c3c(c4c5ccccc5[nH]c4c21)C(=O)N(O)C3=O"
  ASSIGNED_CATEGORY: "False"
- COMPOUND: "C=C(C)[C@@H]1CC[C@]2(C)CC[C@]3(C)[C@H](CC[C@@H]4[C@@]5(C)CCCNC(C)(C)[C@@H]5CC[C@]43C)[C@@H]12"
  ASSIGNED_CATEGORY: "False"
- COMPOUND: "CSc1ccc(N(C)c2nc(C)nc3c2CCC3)cc1"
  ASSIGNED_CATEGORY: "False"
- COMPOUND: "CC1(C)CC[C@]2(C(=O)Nc3ccccn3)CC[C@]3(C)C(=CC[C@@H]4[C@@]5(C)C/C(=C/c6ccncc6)C(=O)C(C)(C)[C@@H]5CC[C@]43C)[C@@H]2C1"
  ASSIGNED_CATEGORY: "True"
- COMPOUND: "CCN(CC)c1ccc(/C=C/c2cc(C)c3ccccc3n2)cc1"
  ASSIGNED_CATEGORY: "False"
- COMPOUND: "Cc1cc(Nc2ccc(F)cc2)nc(N2CCN(c3ccnc4cc(Cl)ccc34)CC2)n1"
  ASSIGNED_CATEGORY: "False"
- COMPOUND: "COc1ccc2c(c1)c(-c1nc(-c3c[nH]c4ncccc34)cs1)cn2CCCN1CCCCC1"
  ASSIGNED_CATEGORY: "True"
- COMPOUND: "CCCCC[C@H]1C/C=C2/C(=O)C(Cl)=C[C@@H]2C/C=C\\CCCC(=O)O[C@@H](CCCCC)C/C=C2/C(=O)C(Cl)=C[C@@H]2C/C=C\\CCCC(=O)O1"
  ASSIGNED_CATEGORY: "True"
- COMPOUND: "Cn1cc(-c2nc(-c3c[nH]c4ncccc34)cs2)c2cc(Cl)ccc21"
  ASSIGNED_CATEGORY: "False"
- COMPOUND: "CCC1C(=O)COC1=O (stereo unspecified)"
  ASSIGNED_CATEGORY: "False"
- COMPOUND: "Fc1ccc(NCc2nnc(-c3ccc(Cl)cc3)o2)cc1"
  ASSIGNED_CATEGORY: "False"
- COMPOUND: "CCCCC[C@H]1CC=C2C(=O)C(Cl)=C[C@@H]2CC=CCCCC(=O)O[C@@H](CCCCC)CC=C2C(=O)C(Cl)=C[C@@H]2CC=CCCCC(=O)O[C@@H](CCCCC)CC=C2C(=O)C(Cl)=C[C@@H]2CC=CCCCC(=O)O1"
  ASSIGNED_CATEGORY: "True"
- COMPOUND: "Cc1cc(Cl)c2c(N(C)C)cccc2n1"
  ASSIGNED_CATEGORY: "False"
- COMPOUND: "O=C1CCCC=CC[C@H]2C=C(Cl)C(=O)C2=CC[C@H](CCCCC(F)(F)F)OC(=O)CCCC=CC[C@H]2C=C(Cl)C(=O)C2=CC[C@H](CCCCC(F)(F)F)OC(=O)CCCC=CC[C@H]2C=C(Cl)C(=O)C2=CC[C@H](CCCCC(F)(F)F)O1"
  ASSIGNED_CATEGORY: "True"
- COMPOUND: "COc1cc(-c2nc(-c3ccccc3)c(-c3ccccc3)[nH]2)cc(OC)c1O"
  ASSIGNED_CATEGORY: "True"
- COMPOUND: "O=S(=O)(NCCNc1cc(-c2cn(-c3ccccc3)nc2-c2cccc(O)c2)ccn1)c1cccc(F)c1"
  ASSIGNED_CATEGORY: "False"
- COMPOUND: "CCOC(=O)C/C(=C\\c1ccccc1)C(C)=O"
  ASSIGNED_CATEGORY: "False"
- COMPOUND: "COc1cc(-c2cc(-c3nc4ccccc4[nH]3)[nH]n2)cc(OC)c1OC"
  ASSIGNED_CATEGORY: "True"
- COMPOUND: "Cc1cc2nc3c4cc(O)ccc4n(CCN(C)C)c3nc2cc1C"
  ASSIGNED_CATEGORY: "True"
- COMPOUND: "C/C(=N\\Nc1ccc2ccccc2n1)c1ccccn1"
  ASSIGNED_CATEGORY: "True"
